System: NCI-H727
Experiment Description: relative viability (nuclei count vs DMSO), 5 days (fraction); higher = more cells survive
Test Parameters: first compound 0.1581 µM

Molecule: CC1(C)CCC(c2ccc(Cl)cc2)=C(CN2CCN(c3ccc(C(=O)NS(=O)(=O)c4ccc(N[C@H](CCN5CCOCC5)CSc5ccccc5)c(S(=O)(=O)C(F)(F)F)c4)cc3)CC2)C1 [Navitoclax] + Cc1nc(NC(=O)N2CCC[C@H]2C(N)=O)sc1-c1ccnc(C(C)(C)C(F)(F)F)c1 [Alpelisib] (partner 2 µM)
relative viability: 0.526
--
Molecule: CC1(C)CCC(c2ccc(Cl)cc2)=C(CN2CCN(c3ccc(C(=O)NS(=O)(=O)c4ccc(N[C@H](CCN5CCOCC5)CSc5ccccc5)c(S(=O)(=O)C(F)(F)F)c4)cc3)CC2)C1 [Navitoclax] + C[C@]1(O)C[C@@H](c2nc(-c3ccc4ccc(-c5ccccc5)nc4c3)c3c(N)nccn32)C1 [Linsitinib] (partner 1 µM)
relative viability: 0.284
--
Molecule: CC1(C)CCC(c2ccc(Cl)cc2)=C(CN2CCN(c3ccc(C(=O)NS(=O)(=O)c4ccc(N[C@H](CCN5CCOCC5)CSc5ccccc5)c(S(=O)(=O)C(F)(F)F)c4)cc3)CC2)C1 [Navitoclax] + O=C(CCCCCCC(=O)Nc1ccccc1)NO [Vorinostat] (partner 1 µM)
relative viability: 1.12
--
Molecule: CC1(C)CCC(c2ccc(Cl)cc2)=C(CN2CCN(c3ccc(C(=O)NS(=O)(=O)c4ccc(N[C@H](CCN5CCOCC5)CSc5ccccc5)c(S(=O)(=O)C(F)(F)F)c4)cc3)CC2)C1 [Navitoclax] + N=C(N)NC(=N)NCCc1ccccc1 [Phenformin] (partner 250 µM)
relative viability: 0.479

====

Tested on: NCI-H322M
Experiment Description: relative viability (nuclei count vs DMSO), 5 days (fraction); higher = more cells survive
Test Parameters: first compound 0.1581 µM
Here, each record is paired with measured relative viability data.

Molecule: CC1(C)CCC(c2ccc(Cl)cc2)=C(CN2CCN(c3ccc(C(=O)NS(=O)(=O)c4ccc(N[C@H](CCN5CCOCC5)CSc5ccccc5)c(S(=O)(=O)C(F)(F)F)c4)cc3)CC2)C1 [Navitoclax] + Nc1ncn([C@H]2C[C@H](O)[C@@H](CO)O2)c(=O)n1 [Decitabine] (partner 2 µM)
relative viability: 0.655
//
Molecule: CC1(C)CCC(c2ccc(Cl)cc2)=C(CN2CCN(c3ccc(C(=O)NS(=O)(=O)c4ccc(N[C@H](CCN5CCOCC5)CSc5ccccc5)c(S(=O)(=O)C(F)(F)F)c4)cc3)CC2)C1 [Navitoclax] + COc1cccc2cc(-c3nc([C@H]4CC[C@H](C(=O)O)CC4)n4ncnc(N)c34)[nH]c12 [OSI-027] (partner 0.5 µM)
relative viability: 0.545
//
Molecule: CC1(C)CCC(c2ccc(Cl)cc2)=C(CN2CCN(c3ccc(C(=O)NS(=O)(=O)c4ccc(N[C@H](CCN5CCOCC5)CSc5ccccc5)c(S(=O)(=O)C(F)(F)F)c4)cc3)CC2)C1 [Navitoclax] + Cc1cc(Nc2cc(N3CCN(C)CC3)nc(Sc3ccc(NC(=O)C4CC4)cc3)n2)n[nH]1 [Tozasertib] (partner 0.1 µM)
relative viability: 0.548
//
Molecule: CC1(C)CCC(c2ccc(Cl)cc2)=C(CN2CCN(c3ccc(C(=O)NS(=O)(=O)c4ccc(N[C@H](CCN5CCOCC5)CSc5ccccc5)c(S(=O)(=O)C(F)(F)F)c4)cc3)CC2)C1 [Navitoclax] + C[C@]1(O)C[C@@H](c2nc(-c3ccc4ccc(-c5ccccc5)nc4c3)c3c(N)nccn32)C1 [Linsitinib] (partner 1 µM)
relative viability: 0.953

The measurements presented in this section are drawn from the supplement of paper PMC10307832.
